Dear all, this message contains pIC50 results, target or system Nicotinamide phosphoribosyltransferase (Homo sapiens).
pIC50: −log10 of the molar value.

Form entry - test system: Nicotinamide phosphoribosyltransferase (Homo sapiens); read-out: pIC50; compound: CS(=O)(=O)Nc1ccc2oc(-c3ccc(CNC(=O)c4cnc5nccn5c4)cc3)nc2c1
Sequence (P43490 whole entry): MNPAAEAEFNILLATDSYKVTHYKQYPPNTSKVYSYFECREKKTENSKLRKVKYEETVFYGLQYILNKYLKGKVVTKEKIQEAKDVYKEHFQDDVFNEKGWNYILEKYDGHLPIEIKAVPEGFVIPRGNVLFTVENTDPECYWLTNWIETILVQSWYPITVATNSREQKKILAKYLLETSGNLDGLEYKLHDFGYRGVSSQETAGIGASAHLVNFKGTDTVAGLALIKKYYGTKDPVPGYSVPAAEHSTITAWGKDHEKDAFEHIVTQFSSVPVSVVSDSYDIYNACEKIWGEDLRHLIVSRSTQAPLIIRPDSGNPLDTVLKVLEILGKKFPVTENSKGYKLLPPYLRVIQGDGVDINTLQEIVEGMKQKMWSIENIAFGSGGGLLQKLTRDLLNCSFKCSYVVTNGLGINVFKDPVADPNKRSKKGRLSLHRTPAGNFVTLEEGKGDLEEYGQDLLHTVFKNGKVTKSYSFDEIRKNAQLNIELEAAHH
> 7.30

Form entry - test system: Nicotinamide phosphoribosyltransferase (Homo sapiens); read-out: pIC50; compound: CC(C)c1ccc2nc(-c3ccc(CNC(=O)c4cnc5nccn5c4)cc3)oc2c1
> 7.30
